# assay info: self-splicing fitness, log relative to wild type (ln ratio); higher = more splicing; Tetrahymena group I intron in knt gene, E. coli kanamycin selection, DiMSum; sequences stand for … in CUCUCU…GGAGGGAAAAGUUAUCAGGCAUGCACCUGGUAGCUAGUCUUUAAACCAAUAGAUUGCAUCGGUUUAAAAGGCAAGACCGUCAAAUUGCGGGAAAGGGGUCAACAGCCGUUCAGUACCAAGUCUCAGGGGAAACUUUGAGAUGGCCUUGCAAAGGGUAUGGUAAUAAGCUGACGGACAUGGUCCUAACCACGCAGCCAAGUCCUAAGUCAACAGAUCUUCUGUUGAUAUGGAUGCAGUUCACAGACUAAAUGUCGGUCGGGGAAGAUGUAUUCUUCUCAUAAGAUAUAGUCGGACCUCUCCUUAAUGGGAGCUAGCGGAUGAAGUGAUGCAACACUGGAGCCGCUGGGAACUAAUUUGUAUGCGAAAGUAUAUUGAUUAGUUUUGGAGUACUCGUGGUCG;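 also: selection with 25 µg/mL kanamycin versus none on LB agar overnight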
# study conditions: 30 °C
Entries and their self-splicing fitness (ln) values follow.

Recorded results for 4 sequences are shown here.
sequence_input=CUACAGCAAUAUUACGUACU observed_measurement=-3.15
sequence_input=CAUCAGCAAUAUUACGCCAG observed_measurement=-0.613
sequence_input=ACCUAGCAAUAUUACGAAAA observed_measurement=-2.66
sequence_input=GGCAAGCAAUAUUACGAAUG observed_measurement=-2.14

Continue with the next sequence.
Input: Quick one: self-splicing fitness (ln) of UCAAAGCAAUAUUACGACCU ?
Output: -1.84

* * *

# assay info: self-splicing fitness, log relative to wild type (ln ratio); higher = more splicing; Tetrahymena group I intron in knt gene, E. coli kanamycin selection, DiMSum; sequences stand for … in CUCUCU…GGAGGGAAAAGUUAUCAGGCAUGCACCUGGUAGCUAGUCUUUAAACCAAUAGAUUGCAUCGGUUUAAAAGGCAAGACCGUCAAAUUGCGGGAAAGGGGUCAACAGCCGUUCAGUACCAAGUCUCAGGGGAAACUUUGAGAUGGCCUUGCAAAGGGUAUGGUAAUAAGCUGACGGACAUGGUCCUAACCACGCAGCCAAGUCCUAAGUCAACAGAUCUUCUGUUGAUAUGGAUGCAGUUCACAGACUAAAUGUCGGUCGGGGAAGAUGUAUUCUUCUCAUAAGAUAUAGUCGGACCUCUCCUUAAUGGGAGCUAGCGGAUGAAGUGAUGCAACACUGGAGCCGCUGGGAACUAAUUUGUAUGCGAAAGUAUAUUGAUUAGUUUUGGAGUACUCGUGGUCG
# study conditions: 37 °C
Entries and their self-splicing fitness (ln) values follow.
Respond using a number only.

sequence_input=GCUUAGCAAUAUUACGUGAU readout_name="self-splicing fitness (ln)" observed_measurement=-0.482
sequence_input=AAUAAGCAAUAUUACGAUGC readout_name="self-splicing fitness (ln)" observed_measurement=-1.45
sequence_input=ACAUAGCAAUAUUACGCACA readout_name="self-splicing fitness (ln)" observed_measurement=-0.0165
sequence_input=CGGCAGCAAUAUUACGGGGU readout_name="self-splicing fitness (ln)" observed_measurement=-3.28

Input: Quick one: self-splicing fitness (ln) of AUCCAGCAAUAUUACGGCAG ?
Output: -0.158

* * *

# assay info: self-splicing fitness, log relative to wild type (ln ratio); higher = more splicing; Tetrahymena group I intron in knt gene, E. coli kanamycin selection, DiMSum; sequences stand for … in CUCUCU…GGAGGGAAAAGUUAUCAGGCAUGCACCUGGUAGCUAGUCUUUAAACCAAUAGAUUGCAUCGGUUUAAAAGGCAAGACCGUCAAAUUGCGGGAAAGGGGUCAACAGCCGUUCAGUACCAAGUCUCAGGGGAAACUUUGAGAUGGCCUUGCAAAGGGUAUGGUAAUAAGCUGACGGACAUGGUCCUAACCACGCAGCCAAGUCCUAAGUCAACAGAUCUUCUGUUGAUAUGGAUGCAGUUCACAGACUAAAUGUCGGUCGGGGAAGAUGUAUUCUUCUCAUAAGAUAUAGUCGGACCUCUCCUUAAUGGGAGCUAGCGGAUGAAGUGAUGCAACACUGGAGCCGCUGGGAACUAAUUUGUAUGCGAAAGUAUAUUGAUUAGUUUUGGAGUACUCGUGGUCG
# study conditions: 30 °C
Class rule met: self-splicing fitness (ln) at least -3. Class rule not met: self-splicing fitness (ln) below -3.

Illustrative cases are given below, each with its answer.
sequence_input=GAACAGCAAUAUUACGAGAU group_label="rule not met"
sequence_input=GCCAAGCAAUAUUACGUCCA group_label="rule met"
sequence_input=UACGAGCAAUAUUACGCUUG group_label="rule met"

Input: Evaluate UCCUAGCAAUAUUACGAUAU : self-splicing fitness (ln) at minimum -3?
Output: rule not met

Input: Would you kindly repeat that for AUUAAGCAAUAUUACGACUU ?
Output: rule met

Input: Would you kindly repeat that for CCAGAGCAAUAUUACGGAUG ?
Output: rule met

Input: Would you kindly repeat that for AAGAAGCAAUAUUACGUCGC ?
Output: rule not met

Input: Would you kindly repeat that for CUAAAGCAAUAUUACGGAUC ?
Output: rule met

Input: Would you kindly repeat that for CUUAAGCAAUAUUACGUAUG ?
Output: rule met

Input: Would you kindly repeat that for GGCCAGCAAUAUUACGGAAG ?
Output: rule met

Input: Would you kindly repeat that for ACAUAGCAAUAUUACGCUAU ?
Output: rule met

Input: Would you kindly repeat that for GAAUAGCAAUAUUACGCCAA ?
Output: rule met

Input: Would you kindly repeat that for AGCCAGCAAUAUUACGUCGU ?
Output: rule met
